- System: Escherichia coli
- protocol-notes: Antibacterial activity against Escherichia coli R477-100 by double-microdilution method
- Format: functional
Here, each record is paired with measured MIC data.
# number then unit; no other words

Worked cases, MIC given:
{"columns": ["item-smiles", "MIC"],
 "data": [
  ["NC[C@@H]1O[C@H](O[C@H]2[C@@H](O)[C@H](O[C@@H]3[C@@H](O)[C@H](N)C[C@H](N)[C@H]3O[C@H]3O[C@H](CN)[C@@H](O)[C@H](O)[C@H]3N)O[C@@H]2COCc2cn(CCN3CCN(c4cc5c(cc4F)c(=O)c(C(=O)O)cn5C4CC4)CC3)nn2)[C@H](N)[C@@H](O)[C@@H]1O", "3 µg/mL"],
  ["NC[C@@H]1O[C@H](O[C@H]2[C@@H](O)[C@H](O[C@@H]3[C@@H](O)[C@H](N)C[C@H](N)[C@H]3O[C@H]3O[C@H](CN)[C@@H](O)[C@H](O)[C@H]3N)O[C@@H]2C(=O)Nc2ccc(-c3cn(CCCCCN4CCN(c5cc6c(cc5F)c(=O)c(C(=O)O)cn6C5CC5)CC4)nn3)cc2)[C@H](N)[C@@H](O)[C@@H]1O", "12 µg/mL"]
]}

Test system Escherichia coli; read-out MIC; what value for `NC[C@@H]1O[C@H](O[C@H]2[C@@H](O)[C@H](O[C@@H]3[C@@H](O)[C@H](N)C[C@H](N)[C@H]3O[C@H]3O[C@H](CN)[C@@H](O)[C@H](O)[C@H]3N)O[C@@H]2C(=O)Nc2ccc(-c3cn(CCCN4CCN(c5cc6c(cc5F)c(=O)c(C(=O)O)cn6C5CC5)CC4)nn3)cc2)[C@H](N)[C@@H](O)[C@@H]1O` ?
6 µg/mL

###

- Tested on: Escherichia coli
- protocol-notes: Resistance index, MIC for aminoglycosides-resistant Escherichia coli BL21 harboring pETSACG1 expressing APH(3')-3a enzyme to MIC for Escherichia coli BL21
- Format: functional
measured-attribute: Ratio
Hey, just send me the number, nothing else.

Worked cases, Ratio given:
{"columns": ["compound", "test-system", "Ratio"],
 "data": [
  ["NC[C@@H]1O[C@H](O[C@H]2[C@@H](O)[C@H](O[C@@H]3[C@@H](O)[C@H](N)C[C@H](N)[C@H]3O[C@H]3O[C@H](CN)[C@@H](O)[C@H](O)[C@H]3N)O[C@@H]2COCc2cn(CCN3CCN(c4cc5c(cc4F)c(=O)c(C(=O)O)cn5C4CC4)CC3)nn2)[C@H](N)[C@@H](O)[C@@H]1O", "Escherichia coli", 1],
  ["NC[C@@H]1O[C@H](O[C@H]2[C@@H](O)[C@H](O[C@@H]3[C@@H](O)[C@H](N)C[C@H](N)[C@H]3O[C@H]3O[C@H](CN)[C@@H](O)[C@H](O)[C@H]3N)O[C@@H]2CO)[C@H](N)[C@@H](O)[C@@H]1O [FRAMYCETIN]", "Escherichia coli", 8],
  ["NC[C@@H]1O[C@H](O[C@H]2[C@@H](O)[C@H](O[C@@H]3[C@@H](O)[C@H](N)C[C@H](N)[C@H]3O[C@H]3O[C@H](CN)[C@@H](O)[C@H](O)[C@H]3N)O[C@@H]2C(=O)NCc2cn(Cc3cccc(CN4CCN(c5cc6c(cc5F)c(=O)c(C(=O)O)cn6C5CC5)CC4)c3)nn2)[C@H](N)[C@@H](O)[C@@H]1O", "Escherichia coli", 1],
  ["NC[C@@H]1O[C@H](O[C@H]2[C@@H](O)[C@H](O[C@@H]3[C@@H](O)[C@H](N)C[C@H](N)[C@H]3O[C@H]3O[C@H](CN)[C@@H](O)[C@H](O)[C@H]3N)O[C@@H]2C(=O)NCc2cn(CC(O)CN3CCN(c4cc5c(cc4F)c(=O)c(C(=O)O)cn5C4CC4)CC3)nn2)[C@H](N)[C@@H](O)[C@@H]1O (stereo partly specified)", "Escherichia coli", 1],
  ["NC[C@@H]1O[C@H](O[C@H]2[C@@H](O)[C@H](O[C@@H]3[C@@H](O)[C@H](N)C[C@H](N)[C@H]3O[C@H]3O[C@H](CN)[C@@H](O)[C@H](O)[C@H]3N)O[C@@H]2C(=O)Nc2ccc(-c3cn(Cc4ccc(CN5CCN(c6cc7c(cc6F)c(=O)c(C(=O)O)cn7C6CC6)CC5)cc4)nn3)cc2)[C@H](N)[C@@H](O)[C@@H]1O", "Escherichia coli", 1]
]}

Would you kindly look at the next entry?
Ratio for `NC[C@@H]1O[C@H](O[C@H]2[C@@H](O)[C@H](O[C@@H]3[C@@H](O)[C@H](N)C[C@H](N)[C@H]3O[C@H]3O[C@H](CN)[C@@H](O)[C@H](O)[C@H]3N)O[C@@H]2C(=O)NCc2cn(Cc3ccc(CN4CCN(c5cc6c(cc5F)c(=O)c(C(=O)O)cn6C5CC5)CC4)cc3)nn2)[C@H](N)[C@@H](O)[C@@H]1O` ?
1

Source listed as ChEMBL document CHEMBL1153403.
